# System Tested: Phenylethanolamine N-methyltransferase (Homo sapiens) (UniProt P11086)
# Sequence (P11086 whole entry, looked up): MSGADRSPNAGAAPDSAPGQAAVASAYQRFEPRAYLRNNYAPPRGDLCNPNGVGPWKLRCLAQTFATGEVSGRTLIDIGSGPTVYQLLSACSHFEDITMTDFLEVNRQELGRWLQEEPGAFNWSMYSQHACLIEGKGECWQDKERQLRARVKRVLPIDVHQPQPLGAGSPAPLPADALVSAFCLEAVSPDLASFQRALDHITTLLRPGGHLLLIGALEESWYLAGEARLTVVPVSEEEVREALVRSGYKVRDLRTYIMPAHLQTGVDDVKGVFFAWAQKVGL
# Assay Info: Confirmatory Screen for Target Class Profiling of Small Molecule Inhibitors of Methyltransferases (AID 1745852)
# Measurement Setup: MTase-Glo luminescence, SAH detection, recombinant enzyme; measured here: PNMT max response; stronger effect = lower value
Reported Endpoint: activity (%)

Cc1c(C(=O)O)ccc2c1N[C@@H](c1cccc(C(F)(F)F)c1)[C@H]1CC=C[C@@H]21    -7.15
O=C(CCCc1nnc2n3nc(-c4ccccc4)nc3c3ccccc3n12)NCCCN1CCCCC1    0.451
O=C(Cn1c(=O)oc2cc(S(=O)(=O)N3CCCC3)ccc21)NCCC1=CCCCC1    -61.9
CCNc1nccc(N2CCC(CC(=O)N3CCN(c4ccccc4F)CC3)CC2)n1    5.27
Cc1ccc(-c2ccc(N)nc2)c2cccnc12    1.29
CCc1cc2c(cc3n2CC(C)(C(=O)NC2CCC(C)CC2)N(C(C)CCc2ccco2)C3=O)s1 (configuration not stated)    -12.3
COc1ccc(CN2C(=O)c3cc4sccc4n3CC2(C)C(=O)NC2CCC(C)CC2)cc1OC (configuration not stated)    -7.08
O=C(CCc1nnc2n(Cc3ccccc3Cl)c(=O)c3ccccc3n12)N1CCC(N2CCCCC2)CC1    0
Cc1cnc(CCNC(=O)c2cccs2)n1C1CCC1    6.31
Cc1cccc(N2CCN(C(=O)c3ccc4c(=O)[nH]c5c(C(=O)NC(C)C)sc(=S)n5c4c3)CC2)c1C    -28.7
O=C(CCc1nnc2n(Cc3ccc(F)cc3)c(=O)c3ccccc3n12)N1CCC(N2CCCCC2)CC1    0
O=C1c2ccccc2C(=O)c2cc(S(=O)(=O)N(CCO)CCO)ccc21    -73.8
COc1cccc(NC(=O)Cn2c(=O)oc3cc(S(=O)(=O)N4CC(C)CC(C)C4)ccc32)c1 (configuration not stated)    -70.5
CC(C)c1nccn1CCCNc1nc(-c2ccncc2)nc2c1cnn2C    -44.2
COc1ccc(-c2nc3ccccc3[nH]2)cc1    -79.7
CCCc1sc(NC(=O)C[C@H]2NC(=O)c3ccccc3NC2=O)nc1C(=O)OC    3.73
O=C(NCc1ccc(Cl)cc1)c1ccc2c(=O)nc3c(-c4ccccc4F)n[nH]n3c2c1    -19.4
COc1ccc(S(=O)(=O)N2CCC(n3c(=O)[nH]c4ccccc43)CC2)cc1    -23.9
CCCC1c2cccn2CCN1C(=O)Nc1ccc(OC)cc1 (configuration not stated)    -7.43
CCCC1c2cccn2CCN1C(=O)Nc1ccccc1Cl (configuration not stated)    1.09
O=C(Cc1ccsc1)Nc1ccc2c(N3CCCC3)ncnc2c1    -6.83
COc1ccc2cc(CNc3ccc(C)cc3)c(=O)n(CC(=O)Nc3cccc(C(F)(F)F)c3)c2c1    -7.35
Cc1cnccc1NCCn1ccnc1-c1cc2n(n1)CCCNC2    0.494
Cc1nc2c3ccccc3n3c(CCCC(=O)NCCCN(C)Cc4ccccc4)nnc3n2n1    -3.01
O=C(CCc1nnc2n(CCc3ccccc3)c(=O)c3ccccc3n12)N1CCN(C2CCCCC2)CC1    0.426
O=C(O)c1ccc2c(c1)C1C=CCC1C(c1cccc(F)c1)N2 (configuration not stated)    -2.83
NC(=O)C1(N2CCCCC2)CCN(c2nc3c(S(=O)(=O)c4ccccc4)nnn3c3ccccc23)CC1    -8.88

* * *

# System Tested: Rap guanine nucleotide exchange factor 3 (Homo sapiens)
# Assay Info: Counterscreen qHTS for antagonist of cAMP-regulated guanine nucleotide exchange factor 3 (EPAC1) (AID 1645888);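 also: fluorescence loss as bound BODIPY-GDP is released from Rap1B; % of control where 0% means no effect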
# Measurement Setup: Rap1B-BODIPY-GDP nucleotide exchange, fluorescence; series mostly up to 154 µM
Inconclusive results are not listed. Calls of active or inactive are those of the source. Calls follow the shape of the dose curve; as a rule, active = well fitted inhibition curve with a large enough effect; inconclusive = small, poorly fitted or top-dose-only effect; inactive = no such curve, though single readings can be large or run the other way.
Reported Endpoint: activity change, negative = inhibition

Cc1ccc(C(=O)/C=C/c2cc(Br)cc(Br)c2O)o1    inactive
O=C1c2cccc3c(N4CCCCC4)ccc(c23)C(=O)N1c1ccc(O)cc1    inactive
Cc1oc2c(c1C(=O)c1ccccc1)C(=O)C(=O)c1ccccc1-2    inactive
O=C(c1ccccc1)C(c1ccccc1)c1ccccc1    2.63% [at 30.8 µM] (inactive)
Cc1nc(N)sc1-c1csc(Nc2ncccn2)n1    inactive
CN1/C(=C\C=C2/SC(=S)N(CC(=O)O)C2=O)C(C)(C)c2ccccc21    286% [at 30.8 µM] (inactive)
COc1cc2cc(Oc3ccc4ccc(=O)oc4c3)c(=O)oc2cc1O    -3.83% [at 30.8 µM] (inactive)
O=C(COc1cccc(OC(F)F)c1)Nc1ccc(SC(F)F)cc1    8.28% [at 30.8 µM] (inactive)
CCN(CC(=O)Nc1ccccc1OC)C(=O)c1ccc(N(C)S(=O)(=O)c2ccc(C)cc2)cc1    inactive
Cc1ccc(S(=O)(=O)Nc2cc(C(=O)NCCN3CCCC3)ccc2N2CCCCC2)cc1    inactive
O=C(COC(=O)Cc1c(Cl)cccc1Cl)NCC1CCCO1 (stereo not given)    inactive
CCCCN(CCCC)C1=Nc2ccccc2N/C1=C(/C#N)C(=O)OCC    inactive
O=C(Cc1nc2ccccc2[nH]c1=O)c1ccccc1    inactive
Cc1ccc(-c2nc3ccc(Br)cn3c2Cc2ccccc2)cc1    inactive
CC(=O)N1CCN(Cc2cc(=O)oc3ccc4ccccc4c23)CC1    9.94% [at 30.8 µM] (inactive)
COc1ccc(-c2nc3ccccc3nc2-c2ccccc2)cc1OC    inactive
Cn1c(=O)c2c(SCc3cccnc3)nc(CC(C)(C)C)nc2n(C)c1=O    -15.2% [at 30.8 µM] (inactive)
CCOC(=O)c1c(CC(C)C)csc1NC(=O)COC(=O)c1ccc(O)cc1    inactive
COc1ccc(-c2[nH]c(-c3ccc(F)cc3)nc2SCC(=O)Nc2ccc(OC)c(OC)c2)cc1    inactive
COc1ccc(NC(=O)CN(C)C(=O)c2cn(-c3ccccc3)nc2-c2cccnc2)cc1    inactive
CCN1C(=O)N(S(=O)(=O)C(F)(F)F)[C@@H](c2ccccc2)C(C(=O)OC)=C1C    inactive
Cc1noc(C)c1COc1ccccc1C(=O)NC(C)c1ccc(Cl)cc1 (stereo not given)    inactive
COC(=O)[C@@H]1CC[C@@](C)(c2ccc(OC)cc2)C1(C)C    8.1% [at 30.8 µM] (inactive)
Cc1[nH]n(-c2ccccc2)c(=O)c1C=Nc1ccc(S(=O)(=O)N=C(N)N)cc1    inactive
CNc1ccc(/C=C/C(=O)c2ccc(C)cc2)cc1[N+](=O)[O-]    16.3% [at 30.8 µM] (inactive)

* * *

# System Tested: Glutathione peroxidase 1 (Homo sapiens) (UniProt P07203)
# Sequence (P07203 whole entry, looked up): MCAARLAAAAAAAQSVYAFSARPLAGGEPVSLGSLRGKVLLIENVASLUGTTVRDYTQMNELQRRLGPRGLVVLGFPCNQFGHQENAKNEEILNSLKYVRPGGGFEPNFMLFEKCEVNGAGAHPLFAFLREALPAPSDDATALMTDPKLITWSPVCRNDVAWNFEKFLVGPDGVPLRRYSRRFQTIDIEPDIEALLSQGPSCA
# Assay Info: Primary qHTS Assay for Inhibitors of Recombinant Selenoprotein Glutathione Peroxidase 1 (GPX1) (AID 1845191); also: nearly all actives have a fitted effect of over 65% in size
# Measurement Setup: recombinant GPX1, GR-coupled NADPH fluorescence, 15 min; series mostly up to 48.8 µM
Records with an inconclusive call do not appear. Calls of active or inactive are those of the source. Calls come from the whole dose curve; as a rule, active = well fitted inhibition curve with a large enough effect; inconclusive = small, poorly fitted or top-dose-only effect; inactive = flat fitted curve, though single readings scatter.
Possible outcomes: TRUE for active, FALSE for inactive

CCCCC(F)(F)C1(O)CCC2C(CC(=O)C2CCCCCCC(=O)O)O1 (centres undefined)    FALSE
CCc1ccc(N(CC(C)C)S(=O)(=O)c2ccc(OCC3CCOCC3)c(CO)c2)cc1    FALSE
O=[N+]([O-])c1cc(S(=O)(=O)Nc2ccc(O)c3ccccc23)ccc1Cl    FALSE
CC(C)(O)C1CCC(Nc2ccc3ncc(-c4cccc(C(F)(F)F)c4)n3n2)CC1 (centres undefined)    FALSE
CC(C)=C/C(C)=N\Nc1nncc2ccccc12    FALSE
Cn1cc(OCC(O)CNC(C)(C)C)c2ccccc2c1=O (centres undefined)    FALSE
OCCN1CCN(C(c2ccc(Cl)cc2Cl)c2sc3nc(-c4ccco4)nn3c2O)CC1 (centres undefined)    FALSE
CONC(=O)c1ccccc1Nc1cc(Nc2cc(C)nn2C(C)C)ncc1Cl    FALSE
O=S1(=O)CCN(CN2CCS(=O)(=O)NC2)CN1    FALSE
CC(C)=CCCC(C)=CCCC(C)=CCCC=C(C)CCC=C(C)CCC=C(C)C    FALSE
O=C(OC[C@H]1O[C@@H](OC(=O)c2cc(O)c(O)c(O)c2)[C@H](O)[C@@H](OC(=O)c2cc(O)c(O)c(O)c2)[C@@H]1O)c1cc(O)c(O)c(O)c1    FALSE
COc1ccc(CC(C)(C)NC[C@H](O)c2cc(O)cc3c2OCC(=O)N3)cc1    FALSE
CC(OC(=O)OC1CCCCC1)OC(=O)C1=C(CSc2nnnn2CCN(C)C)CS[C@@H]2[C@H](NC(=O)Cc3csc(N)n3)C(=O)N12 (some centres undefined)    TRUE
O=c1cc(-c2cccc(O)c2)oc2c(O)c(O)ccc12    FALSE
CCCCCC/C=C\CCCCCCCC(=O)O    FALSE
Cc1ncc(COP(=O)(O)O)c(C)c1O    FALSE
C/C(O)=C(\C#N)C(=O)Nc1ccc(C(F)(F)F)cc1    FALSE
CC1CCCC(C)N1C(=S)Nc1cccc(C(F)(F)F)c1 (centres undefined)    TRUE
CCO/N=C(\C(=O)N[C@@H]1C(=O)N2C(C(=O)O)=C(Sc3nc(-c4cc[n+](C)cc4)cs3)CS[C@H]12)c1nsc(NP(=O)(O)O)n1    TRUE
O=C(c1cccc(Br)c1)N1CCC(N2CCCC2)CC1    FALSE
COc1cc(/C=C/C(=O)N2CCC=CC2=O)cc(OC)c1OC    FALSE
CCC(=O)OCC(=O)[C@]1(OC(=O)CC)[C@H](C)C[C@H]2[C@H]3[C@H]([C@@H](O)C[C@@]21C)[C@@]1(C)C=CC(=O)C=C1C[C@H]3Cl    FALSE
CCc1nc2c(sc3nc4c(cc32)COC(C)(C)C4)c(=O)n1Cc1ccco1    FALSE
CC1(C)S[C@@H]2[C@H](NC(=O)COc3ccccc3)C(=O)N2[C@H]1C(=O)O    FALSE
